Target: T1, recombinant human CEACAM5 (human, UniProt P06731 35-685, limits assumed)
T1 construct: Immobilised by amine coupling on a CM5 chip
T1 sequence (looked up): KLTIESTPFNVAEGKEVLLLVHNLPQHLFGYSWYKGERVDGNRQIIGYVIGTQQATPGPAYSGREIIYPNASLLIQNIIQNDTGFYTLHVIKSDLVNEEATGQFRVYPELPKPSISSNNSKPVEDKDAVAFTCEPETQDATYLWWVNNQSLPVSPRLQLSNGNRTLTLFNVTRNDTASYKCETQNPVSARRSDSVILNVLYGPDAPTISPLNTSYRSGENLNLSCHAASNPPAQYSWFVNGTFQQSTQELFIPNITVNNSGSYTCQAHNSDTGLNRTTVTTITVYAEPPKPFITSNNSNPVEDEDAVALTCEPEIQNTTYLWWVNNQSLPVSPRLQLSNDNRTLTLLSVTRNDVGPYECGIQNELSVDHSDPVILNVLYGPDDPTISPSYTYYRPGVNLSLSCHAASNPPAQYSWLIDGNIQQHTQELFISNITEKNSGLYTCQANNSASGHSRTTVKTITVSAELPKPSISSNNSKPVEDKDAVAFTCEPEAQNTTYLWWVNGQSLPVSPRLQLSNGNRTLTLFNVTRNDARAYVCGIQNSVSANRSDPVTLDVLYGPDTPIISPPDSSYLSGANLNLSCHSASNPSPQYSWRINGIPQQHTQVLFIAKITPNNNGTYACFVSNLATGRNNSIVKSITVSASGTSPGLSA
Assay: SPR on CEACAM5 (Example 2; method not restated, as Example 1)
koff: recorded values
Give your result in s⁻¹ as a bare value.

INSERT INTO assay_data (binder, meas_value) VALUES
  ('T039400053 (VHH, Single lysine at 43; 24 used; also called HIS6-ENLYFQS-5GS-A0315007E07(K64R, K75R,)) VHH: EVQLVESGGGVVQPGGSLRLSCAASGLTFSTYTMGWFRQAPGKEREFVAAIIWSGSNTYYADSVRGRFTISRDNARNTVYLQMNSLRPEDTALYYCAAQHFGPIGLTTRGYHYWGQGTLVTVSS', 0.000516);

Ask | Supply measured koff of T039400049 (VHH, also called HIS6-ENLYFQS-5GS-A0315007E07(K43R, K64R, K75R, Q105K)) VHH: EVQLVESGGGVVQPGGSLRLSCAASGLTFSTYTMGWFRQAPGREREFVAAIIWSGSNTYYADSVRGRFTISRDNARNTVYLQMNSLRPEDTALYYCAAQHFGPIGLTTRGYHYWGKGTLVTVSS in your reply.
Reply | 0.000536

Ask | Supply measured koff of T039400048 (VHH, Single lysine at 45; also called HIS6-ENLYFQS-5GS-A0315007E07(K43R, R45K, K64R, K75R)) VHH: EVQLVESGGGVVQPGGSLRLSCAASGLTFSTYTMGWFRQAPGREKEFVAAIIWSGSNTYYADSVRGRFTISRDNARNTVYLQMNSLRPEDTALYYCAAQHFGPIGLTTRGYHYWGQGTLVTVSS in your reply.
Reply | 0.000504
